Where do the numbers come from? From the supplement of paper PMC9170038.

# apparent KD of K4 kissing-loop reporter per record follows
- System: K4 kissing-loop RNA reporter;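 further: bound reporter read as fluorescence of individual clusters on recovered sequencing chips by microscopy, with normalized cluster intensities fitted with a binding model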
- Test Details: apparent KD of K4 kissing-loop reporter; higher = weaker reporter binding
- Assay Context: Eterna round: R107; input ligand: FMN 200 uM
Reply numerically in nM, unit not repeated.

Below are worked cases with known answers.
Seq String	Readout	Measured Number
GCCGUACGCAUGGAUACCAGUCUUAGAGUGAUGUUCUAAUCGAUUGCGCCUGGAUCAAUGGACCCUUGGCAGCCAUGCGUACGGC	apparent KD of K4 kissing-loop reporter	129
UUUCUUUUUUUGAUGUUUUUUGUAUAAUGGCAGGAUAUCGUAGAUGCGAGAAGGGCUUUUAUGCGUUAUGAGUGAUGUUUGUAGG [aaxazvmullin]	apparent KD of K4 kissing-loop reporter	324
AAUAAGUGUCAGCGAGUGAUGUUCGACGAUACCAGCCUCGAUAGAGGCCCUUGGCAGCGUAACGCAUGCCAAACUGGCACAAUAA [#SwitchBubble 7 #K4Early]	apparent KD of K4 kissing-loop reporter	500
AGGGAUGAUGGAUAAAUAAACAAAAGGGAUACCAGUCAAAUAAUAGGCCCUUGGCAGCUUUAGAUCAGUGAUGUUGAAGAUAUUG [Theophylline A Same State; Euphoria Solution]	apparent KD of K4 kissing-loop reporter	84.1
AUUCACCUGUCGGCCGCCACUGCGUUAGCAGUAUCGGGCAGAAACUUCGCAGUGAUGUUGCGACUCAGGACCGGGACGUUGAGGA [theeternabot_exclusion_KL_Trp_B_29]	apparent KD of K4 kissing-loop reporter	445

Query: I am curious: what apparent KD of K4 kissing-loop reporter value has been reported for UAUAUAGUGACGGCCGCCACUAUAUUAAUGUUUUUGUUAGAGUGAUGUUUUGUUUAAUAUUUUUAUAGGACCGGGUUAUAUGUUA [zsqqxmullin] ?
Result: 569

* * *

- Tested on: MS2 coat protein
- Test Details: apparent KD of MS2 coat protein; designed switch direction (-1 OFF switch, 1 ON switch): -1; higher = weaker reporter binding
- Assay Context: input ligand: microRNA oligo, concentration not stated
Each entry gets NO if its apparent KD of MS2 coat protein stays under 40 nM, and YES if its apparent KD of MS2 coat protein is 40 nM or above.

Worked cases, answers included:
Seq String	Study Target	Category
UUGGAGAUAGGAUAUACGAGGAGAGUUGAGGGAAGGUGAUGACAUGAGGAUCACCCAUGUAGAAGGAUCAGGAG [JR_Exclu2_Sub069] (Eterna round: R96, puzzle: Exclusion 2)	MS2 coat protein	YES
AGUCAGGCGGUAGGAUAUCCAUAUCGAGUGACCCUUUCAUAACAUGAGGAUCACCCAUGUCGGUGGGAGAAGGGCCGUAAGGCA [Mat - Exclusion NG 2 - Mod of JL - D69] (Eterna round: R96, puzzle: Exclusion NG 2)	MS2 coat protein	NO
ACAUGUUGCGCAGGAUAUGGGACACAUGAGGAUCACCCAUGUGGUUACAUGUCUUACCAAGCGUCCCAGAAGGGCGUGAACAUG [Ex NG2 #31] (Eterna round: R96, puzzle: Exclusion NG 2)	MS2 coat protein	NO
CAAAAUGCUCGAGGAUAUCCGAGGAGCAGAAAAGGAGAAGGCGAGGAUAAAGAACAUGAGGAUCACCCAUGUGAACCUCGUAAU [Lereores] (Eterna round: R96, puzzle: Exclusion NG 1)	MS2 coat protein	NO

Continue with the next sequence.
Query: Record AACAGUACAGGAUAUACAUGAGGAUCACCCAUGUGAGAAUUAAGUGGCGAACCACAAAGUAGAAGGGUACUGGA [Mat - Exclusion 3 - JL mod - D1] (Eterna round: R96, puzzle: Exclusion 3) ; criterion: apparent KD of MS2 coat protein no lower than 40 nM. Met?
Result: NO
